meta.source: patent US20070066672A1

- Tgt: Peptide Deformylase (PDF) (Escherichia coli, UniProt P0A6K3)
- Sequence (P0A6K3 whole entry): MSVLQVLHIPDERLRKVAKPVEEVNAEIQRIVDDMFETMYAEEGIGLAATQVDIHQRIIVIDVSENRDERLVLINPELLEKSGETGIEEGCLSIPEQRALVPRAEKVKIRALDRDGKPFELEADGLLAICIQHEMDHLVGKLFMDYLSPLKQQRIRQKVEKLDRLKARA
IC50 strictly less than 6 µM = met. Otherwise not met.

Recorded results for 8 compounds are shown here.
COC(=O)CNC(=O)c1ccc2c(c1)nc(C(CCc1ccccc1)NC(=O)CCC(=O)O)n2Cc1ccccc1Cl (stereo not drawn)    not met
CCC(NC(=O)CCC(=O)O)c1nc2cc(C(=O)NCC(=O)OC)ccc2n1Cc1ccccc1 (stereo not drawn)    met
COC(=O)CNC(=O)c1ccc2c(c1)nc(C(CC(C)C)NC(=O)CCC(=O)O)n2Cc1ccccc1 (stereo not drawn)    met
COC(=O)CNC(=O)c1ccc2c(c1)nc(C(CCSC)NC(=O)CCC(=O)NO)n2Cc1ccccc1 (stereo not drawn)    not met
COC(=O)CNC(=O)c1ccc2c(c1)nc(C(CC(C)C)NC(=O)CCC(=O)O)n2CCO (stereo not drawn)    not met
COC(=O)CNC(=O)c1ccc2c(c1)nc(C(Cc1ccccc1)NC(=O)CCC(=O)NO)n2Cc1ccc(Cl)cc1 (stereo not drawn)    met
COC(=O)CNC(=O)c1ccc2c(c1)nc(C(CCSC)NC(=O)CCC(=O)O)n2C1CC1 (stereo not drawn)    not met
COC(=O)CNC(=O)c1ccc2c(c1)nc(C(CCc1ccccc1)NC(=O)CCC(=O)O)n2C1CC1 (stereo not drawn)    met

Please determine if COC(=O)CNC(=O)c1ccc2c(c1)nc(C(Cc1cccc3ccccc13)NC(=O)CCC(=O)O)n2Cc1ccccc1 (stereo not drawn) is below 6 µM in terms of IC50.
not met

Please determine if COC(=O)CNC(=O)c1ccc2c(c1)nc(C(Cc1ccccc1)NC(=O)CCS)n2CCN (stereo not drawn) is below 6 µM in terms of IC50.
not met

Please determine if CCC(NC(=O)CCC(=O)NO)c1nc2cc(C(=O)NCC(=O)OC)ccc2n1Cc1ccco1 (stereo not drawn) is below 6 µM in terms of IC50.
met

Please determine if COC(=O)CNC(=O)c1ccc2c(c1)nc(C(CCc1ccccc1)NC(=O)CCC(=O)O)n2CC1CCCCC1 (stereo not drawn) is below 6 µM in terms of IC50.
not met

Please determine if COC(=O)CNC(=O)c1ccc2c(c1)nc(C(Cc1ccccc1)NC(=O)CCS)n2Cc1ccc(Cl)cc1 (stereo not drawn) is below 6 µM in terms of IC50.
not met

Please determine if COC(=O)CNC(=O)c1ccc2c(c1)nc(C(CCCCN)NC(=O)CCS)n2CC1CCCCC1 (stereo not drawn) is below 6 µM in terms of IC50.
not met

----------
- Tgt: Peptide Deformylase (PDF) (Staphylococcus aureus, UniProt P68826)
- Sequence (P68826 1-183): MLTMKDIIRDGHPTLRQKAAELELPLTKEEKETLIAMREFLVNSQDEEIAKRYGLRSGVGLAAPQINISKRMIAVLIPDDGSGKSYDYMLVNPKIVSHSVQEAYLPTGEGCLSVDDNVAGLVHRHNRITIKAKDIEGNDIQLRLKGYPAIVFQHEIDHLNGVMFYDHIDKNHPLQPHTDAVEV
The following compounds are shown together with reported pIC50 values.
Just the number, please; pIC50 means minus log10 of the concentration in mol/L.

Take a look at these entries with their results.
COC(=O)CNC(=O)c1ccc2c(c1)nc(C(CCSC)NC(=O)CCC(=O)NO)n2C1CC1 (stereo not shown)    5.82
COC(=O)CNC(=O)c1ccc2c(c1)nc(C(CC(C)C)NC(=O)CCC(=O)NO)n2Cc1ccccc1 (stereo not shown)    6.09

Next, consider the following compound.
Please report the recorded pIC50 for CCC(NC(=O)CCC(=O)O)c1nc2cc(C(=O)NCC(=O)OC)ccc2n1C1CC1 (stereo not shown) .
7.64
